Tested on: Saccharomyces cerevisiae
protocol description: protein stability index of tFT-peptide fusion (C-terminal peptide) (PSI (0-1 scale)); higher = more stable (slower turnover)
measurement parameters: genetic background: wild type; temperature: 30 C
measurement label: protein stability index
In your answer, state the number alone without any accompanying words.

For orientation, consider the following solved cases.
1. HALWRASVGQCG | 0.693
2. LKLQGGCLETGA | 0.602
3. VCIAKCKYNKTS | 0.606

Asked: Query for Saccharomyces cerevisiae: what protein stability index does the record show for DRGSLVASGGGG ?
Given back: 0.713

Asked: Param readout= protein stability index; system= Saccharomyces cerevisiae; entry= VSRPPPRNPTPP ; returns value.
Given back: 0.728

Asked: Request: protein stability index, test system Saccharomyces cerevisiae, entry GCVPGVGRDVVV
Given back: 0.719

Asked: Give protein stability index (Saccharomyces cerevisiae) of the following sequence: LICRRVRLSMRG
Given back: 0.571

Asked: Hello, I am looking for reported protein stability index with Saccharomyces cerevisiae for SPVPVTFSLLTR . Could you help?
Given back: 0.698

Asked: Provide value of protein stability index for this record tested with Saccharomyces cerevisiae: RLPSLTGLELFS
Given back: 0.685

Asked: So what protein stability index did NEPEKGQRKRRE get with Saccharomyces cerevisiae?
Given back: 0.805

Asked: Look up protein stability index with Saccharomyces cerevisiae for this sequence: GFAVGDQFIVPL
Given back: 0.687

Asked: Provide the documented protein stability index with Saccharomyces cerevisiae as the system for CRRPPWRFSFPF
Given back: 0.767

Asked: Give the reported protein stability index for SLRRPPPRSRNG (system: Saccharomyces cerevisiae).
Given back: 0.654

Asked: Find protein stability index (Saccharomyces cerevisiae) for the entry CRFRFGFNFSSF
Given back: 0.581

Asked: Find protein stability index (Saccharomyces cerevisiae) for the entry LGLWSSVFGSSL
Given back: 0.743

Asked: Any idea what protein stability index came out for VLDLVPDFSNGG on Saccharomyces cerevisiae?
Given back: 0.65

====

Tested on: Saccharomyces cerevisiae
protocol description: protein stability index of tFT-peptide fusion (C-terminal peptide) (PSI (0-1 scale)); higher = more stable (slower turnover)
measurement parameters: genetic background: das1 deletion; temperature: 30 C
measurement label: protein stability index
The answer should be a number; do not append a unit.

Asked: Quick one: protein stability index of FVCWGSLILCGG ?
Given back: 0.19

Asked: Entry under review: CHPIPLARLAPT . Reported protein stability index?
Given back: 0.67

Asked: Given the sequence GRGLRVCWVWSG , what is its reported protein stability index?
Given back: 0.605

Asked: Fill in: protein stability index of TEHIIAFKASVN is ___
Given back: 0.626

====

Recorded measurements of protein stability index, one per entry
Test system: Saccharomyces cerevisiae
protocol description: protein stability index of tFT-peptide fusion in deletion strain of DOA10 (PSI (0-1 scale)); higher = more stable (slower turnover)
When you answer, write just the number.

Sample answers from the record:
1) RSLRVRLPLYFR | 0.675
2) GLYMCSVWCWFR | 0.399
3) AITLPMCPLLLG | 0.544
4) CLVSLPINLFFR | 0.682
5) RSVRVLLPLYFR | 0.661

Asked: For the sequence shown here, FITLPMCPLLLR , give the reported protein stability index.
Given back: 0.61

Asked: Request the reported protein stability index associated with RVTRHDAIYFRI
Given back: 0.689

Asked: Which protein stability index value is on record for AITLPMCPLLLA ?
Given back: 0.313

Asked: Need protein stability index, item LSLRVLLPLYFR
Given back: 0.616

====

System: Saccharomyces cerevisiae
protocol description: protein stability index of tFT-peptide fusion (C-terminal peptide) (PSI (0-1 scale)); higher = more stable (slower turnover)
measurement parameters: genetic background: wild type; temperature: 30 C
Give Met when the value for protein stability index is at least 0.7. Give Not met when it is less.

The following sequences have reported results that may help.
1. GKGYVFRTLSHL | Met
2. ELNERRKRLVTN | Not met
3. GIQIRIDNQKKN | Not met

Here is another sequence to look at.
Asked: Please indicate if the recorded protein stability index for RCWEWADWPRDG meets or exceeds 0.7.
Given back: Met

====

Tested on: Saccharomyces cerevisiae
protocol description: protein stability index of tFT-peptide fusion (C-terminal peptide) (PSI (0-1 scale)); higher = more stable (slower turnover)
measurement parameters: genetic background: cdc53-1; temperature: 37 C
protein stability index reference
Format: numeric value only, no unit, no commentary.

1) YLGSPLSLMLVA | 0.491
2) RSAVECRVTNIR | 0.723

Asked: Form: Entry = GYSMPVSFFFAL | System = Saccharomyces cerevisiae | protein stability index = ____
Given back: 0.779

Asked: Param readout= protein stability index; system= Saccharomyces cerevisiae; entry= VRRFNVLLYVRG ; returns value.
Given back: 0.492

Asked: Query protein stability index on Saccharomyces cerevisiae for CHPIPLARLAPT
Given back: 0.745

Asked: Write down the reported protein stability index of LPVSLWLVCSFF , test system: Saccharomyces cerevisiae.
Given back: 0.543

Asked: Reported protein stability index for Saccharomyces cerevisiae, given WLCWVVWFPGLF ?
Given back: 0.509

====

Test system: Saccharomyces cerevisiae
protocol description: protein stability index of tFT-peptide fusion (C-terminal peptide) (PSI (0-1 scale)); higher = more stable (slower turnover)
measurement parameters: genetic background: wild type; temperature: 30 C
protein stability index of 0.4 or higher: true (1). Under 0.4: false (0).

Asked: Hi, just wondering whether GGTFWDGLVLVH shows protein stability index of 0.4 or higher.
Given back: false (0)

Asked: Determine whether measured protein stability index meets or exceeds 0.4 for RLPRILVLVCLF
Given back: false (0)

Asked: # check: protein stability index of GAVRRWGGVSFV is greater than or equal to 0.4
Given back: true (1)

Asked: Decide: protein stability index of SFAVSSDYLFII >= 0.4?
Given back: false (0)

Asked: Confirm if protein stability index reported for the sequence CLNPCVRWDGHV is 0.4 or above.
Given back: true (1)

====

Test system: Saccharomyces cerevisiae
protocol description: protein stability index of tFT-peptide fusion (C-terminal peptide) (PSI (0-1 scale)); higher = more stable (slower turnover)
measurement parameters: genetic background: wild type; temperature: 30 C
measurement label: protein stability index

Illustrative cases are given below, each with its answer.
1. KIVSGLVRTNSS [YIL060W C-terminal 12 aa] | 0.717
2. HKGAVCVALNDV [LST8 C-terminal 12 aa] | 0.696
3. TTDEEVKEKKKR [GLE2 C-terminal 12 aa] | 0.692
4. EAELEEDWGMYG [YBR062C C-terminal 12 aa] | 0.71
5. MHSNFQNLFNLK [CLB5 C-terminal 12 aa] | 0.707

Below: the item to evaluate.
Asked: Could you share which protein stability index value was measured for KHVGKGCGYSYH [STP4 C-terminal 12 aa] ?
Given back: 0.698

====

Test system: Saccharomyces cerevisiae
protocol description: protein stability index of tFT-peptide fusion (C-terminal peptide) (PSI (0-1 scale)); higher = more stable (slower turnover)
measurement parameters: genetic background: wild type; temperature: 30 C
measurement label: protein stability index
Reply with just the number.

1. VFLVDCFGVCFL | 0.784
2. ARASPPARRSPT | 0.673
3. RMLVNKLSAFFI | 0.64
4. LTPLPSRPPPLP | 0.683
5. SGCCCGSDVYIG | 0.691
6. DQIYEKQKIPST | 0.621

Asked: Form field: reported protein stability index of GPGTSSSGLVFT
Given back: 0.692

Asked: Would you kindly share the measured protein stability index for SPPPLPPPPPSP ?
Given back: 0.68

Asked: # lookup: protein stability index of PLLGPFTPSSLL
Given back: 0.737

Asked: Param item = HQVPSPPPPGPL ; retrieve measured protein stability index.
Given back: 0.707

====

System: Saccharomyces cerevisiae
protocol description: protein stability index of tFT-peptide fusion (C-terminal peptide) (PSI (0-1 scale)); higher = more stable (slower turnover)
measurement parameters: genetic background: wild type; temperature: 30 C
protein stability index values by entry
// no unit, no text: just the number

1) SDEEPSSKKRKV [VPS75 C-terminal 12 aa] | 0.678
2) FHTLENHLKGNS [ADR1 C-terminal 12 aa] | 0.731
3) FQRRSISGLGDL [INP1 C-terminal 12 aa] | 0.676
4) HKQCDSLLDRLK [PTA1 C-terminal 12 aa] | 0.705
5) YNSDSGSYYTLM [YOR192C-C C-terminal 12 aa] | 0.731
6) EELKKLSNPDMN [CUP9 C-terminal 12 aa] | 0.686
7) GYCKVHPVSDSK [ASI1 C-terminal 12 aa] | 0.656
8) VPKSLYGVTRTR [GAT3 C-terminal 12 aa] | 0.686

Asked: Request the reported protein stability index associated with GLSLSFSKKLDL [DSN1 C-terminal 12 aa]
Given back: 0.671

Asked: Consider the sequence ALNGDCCLWRWV [SWD3 C-terminal 12 aa] and give its measured protein stability index.
Given back: 0.292

Asked: Look up protein stability index for this sequence: FLVNTTNKKESD [YIL092W C-terminal 12 aa]
Given back: 0.693

Asked: Can you look up the measured protein stability index of DEQPTLSQSKTK [DAD1 C-terminal 12 aa] for me?
Given back: 0.714

Asked: Suppose we examine the sequence MKSKKIDIKGQK [THP3 C-terminal 12 aa] ; what protein stability index value has been reported?
Given back: 0.665

Asked: So what's the measured protein stability index for this one? PNILLAFSYTAW [YNL170W C-terminal 12 aa]
Given back: 0.566

Asked: Given the entry KPFYYKIYRFWC [SAM3 C-terminal 12 aa] , report its measured protein stability index.
Given back: 0.389

Asked: Given LERLRYLFPNYW [MEU1 C-terminal 12 aa] , state its recorded protein stability index.
Given back: 0.717

Asked: Reported protein stability index for IRIVITINKVTL [IRC9 C-terminal 12 aa] : what is it?
Given back: 0.366

Data origin, for the record: the supplement of paper PMC10724198
